Target: Adenosine A2a receptor (Homo sapiens)
Construct: expressed in transfected cells; host or cells: CHO cell membranes
Sequence (P29274 whole entry): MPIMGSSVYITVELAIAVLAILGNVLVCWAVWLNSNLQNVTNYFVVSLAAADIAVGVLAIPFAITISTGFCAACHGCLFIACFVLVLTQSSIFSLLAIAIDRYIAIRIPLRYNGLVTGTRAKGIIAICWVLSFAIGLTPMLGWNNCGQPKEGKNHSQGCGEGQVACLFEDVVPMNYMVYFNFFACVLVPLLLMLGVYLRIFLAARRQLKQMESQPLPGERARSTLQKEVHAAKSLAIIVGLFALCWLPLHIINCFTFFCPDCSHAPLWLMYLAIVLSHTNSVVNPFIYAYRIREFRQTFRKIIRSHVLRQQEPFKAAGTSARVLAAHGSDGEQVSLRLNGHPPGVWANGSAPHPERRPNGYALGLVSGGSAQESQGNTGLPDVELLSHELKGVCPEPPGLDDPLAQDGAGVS
Experiment: Adenosine receptor TR-FRET binding assay, A2a
Details: Table 9, further testing; displacement of 100 nM CA200645, CHO cell membranes
Metric name: Ki (nM)

A. Nc1nc(-c2cccc(F)c2)ncc1C(=O)NCc1c(F)cccc1F
B. Nc1nc(-c2cccc(F)c2)ncc1C(=O)NCc1cccc(C(F)(F)F)c1
C. Cc1cccc(CNC(=O)c2cnc(-c3ccco3)nc2N)c1
Could you please sort these 3 entries by Ki from high to low? List the labels in the requested order.
B, A, C
(B: 976 nM, A: 50 nM, C: 10 nM)

P. COc1cccc(CNC(=O)c2cnc(-c3cccc(F)c3)nc2N)c1OC
Q. Nc1nc(-c2ccco2)ncc1C(=O)NC1Cc2ccccc2C1
// compare measured Ki, left P , right Q , return larger Refer to your chosen item by its label in the answer.
P

P. COc1ccccc1CNC(=O)c1cnc(-c2ccco2)nc1N
Q. Nc1nc(-c2ccco2)ncc1C(=O)NCc1cc2ccccc2cn1
Could you determine which record has the numerically smaller Ki? Candidates: P and Q Refer to your chosen item by its label in the answer.
P
(P: 0.95 nM, Q: 14 nM)

P. Cc1cccnc1CNC(=O)c1c(N)nc(-c2ccco2)nc1OCCC1CCCCN1 (centres unmarked)
Q. Cc1cccnc1CNC(=O)c1nnc(-c2cccc(C#N)c2)nc1N
R. CCOc1cccnc1CNC(=O)c1cnc(-c2cccc(F)c2)nc1N
S. Nc1nc(-c2cccc(F)c2)ncc1C(=O)NCc1ncccc1Cl
Rank descending by Ki. List the labels in the requested order.
P, S, R, Q
(P: 864 nM, S: 36 nM, R: 21 nM, Q: 2.4 nM)

A. Cc1cccnc1CNC(=O)c1nnc(-c2ccc(F)cc2)nc1N
B. COc1cccc(OC)c1CNC(=O)c1cnc(-c2ccco2)nc1N
C. Nc1nc(-c2ccco2)ncc1C(=O)NCc1cccc(Cl)c1
D. Cc1cccnc1CNC(=O)c1c(N)nc(-c2ccco2)nc1OCCCO
E. COc1nc(-c2ccco2)nc(N)c1C(=O)NCc1c(Cl)cccc1Cl
Rank descending by Ki. List the labels in the requested order.
A, C, B, D, E
(A: 51 nM, C: 3.9 nM, B: 1.2 nM, D: 0.199 nM, E: 0.078 nM)

A. Cc1cccnc1C(C)NC(=O)c1cnc(-c2ccco2)nc1N (centres unmarked)
B. CCCNC(=O)c1c(N)nc(-c2cccc(C#N)c2)nc1OCCF
C. Nc1nc(-c2ccco2)ncc1C(=O)NCc1ccc2cnccc2c1
Rank descending by Ki. List the labels in the requested order.
C, A, B
(C: 230 nM, A: 40 nM, B: 5.7 nM)

a. Cc1cccnc1CNC(=O)c1cnc(-c2cccc(F)c2)nc1N
b. COCCOc1nc(-c2ccco2)nc(N)c1C(=O)NCc1ncccc1C
Could you determine which record has the numerically smaller Ki? Candidates: a and b Refer to your chosen item by its label in the answer.
b
(b: 0.54 nM, a: 12 nM)

P. Nc1nc(-c2ccco2)ncc1C(=O)NCc1cc(F)cc(C(F)(F)F)c1
Q. Nc1nc(-c2ccco2)ncc1C(=O)N[C@H](CO)c1ccccc1
R. Nc1nc(-c2cccc(F)c2)ncc1C(=O)NCc1ncccn1
S. Nc1nc(-c2ccco2)ncc1C(=O)NCc1cccc(F)c1
Put the items in order so that reported Ki rises from first to last. List the labels in the requested order.
S, Q, P, R
(S: 20 nM, Q: 54 nM, P: 78 nM, R: 278 nM)
